Cited source: patent US20030068675

- systemName: ZFP SBS#1455 (synthetic)
- Sequence (chain, as listed by the source): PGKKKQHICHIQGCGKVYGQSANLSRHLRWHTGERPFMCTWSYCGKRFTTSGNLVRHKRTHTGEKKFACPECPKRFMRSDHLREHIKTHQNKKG
- procedureSummary: EMSA
- recordedConditions: tags: MBP fusion
recordedEndpoint: pKd
One number for each entry, as −log10 of the molar value.

Ask | For the binder shown here, CGGGATGAA (dsDNA) DNA 1: CGGGATGAA DNA 2: TTCATCCCG , give the reported pKd.
Reply | 10.37
